- methodNotes: 384-well plate pilot, post-Golgi transport modulator project, inhibition of yeast transport mutant growth (AID 636)
- experimentalConditions: absorbance 615 nm, about 18 h, active compounds read high
We begin with a simple list: items and their reported inhibition.
// return numeric value only (unit: %, not printed)

- CC(C)C(NC(=O)c1ccccc1NC(=O)c1ccco1)C(=O)O (stereo not given): -8.24
- CCOC(=O)C(NC(C)=O)(NS(=O)(=O)c1ccccc1)C(F)(F)F (stereo not given): -4.16
- O=C(CN1C(=O)c2cccc3cccc1c23)N1CCN(c2ccccc2)CC1: 1.49
- Cc1ccc(-c2nnn(CC(=O)N(Cc3ccco3)C(C(=O)NC(C)(C)C)c3cccs3)n2)o1 (stereo not given): 0.4
- CC(C)C(=O)Nc1cccc(NC(=O)c2cccnc2)c1: -2.63

(Q) Requested read-out: inhibition. Entry: Cc1cnc(-c2nnc(N(C)C(=O)C3CCOC3)s2)cn1 (stereo not given)
(A) -1.45

(Q) What about this compound? CC(C)[C@H](NC(=O)OC(C)(C)C)c1nnc(SCC(=O)Nc2ccc(Br)cc2)o1
(A) -1.17

(Q) What about this compound? O=C(NCc1ccco1)C1(S(=O)(=O)c2ccc(Cl)cc2)CC1
(A) -0.65

(Q) What about this compound? COc1ccc(-n2c(SCc3ccc(C#N)cc3)nnc2-c2ccccn2)cc1
(A) -7.16

(Q) What about this compound? CC1=C(C(=O)NC2CCC(C)CC2)C2(CCC(C)CC2)OC1=O (stereo not given)
(A) -2.27

###

- methodNotes: 384-well plate pilot, post-Golgi transport modulator project, inhibition of yeast transport mutant growth (AID 636)
- experimentalConditions: absorbance 615 nm, about 18 h, active compounds read high
We begin with a simple list: items and their reported inhibition.
// return numeric value only (unit: %, not printed)

The examples below pair each entry with its known result.
- CN1/C(=C\C(=O)C(F)F)C(C)(C)c2ccccc21: -0.53
- Cc1onc(-c2ccccc2)c1C(=O)Nc1ccc(S(=O)(=O)N2CCCCC2)cc1: -0.77
- CCOC(=O)C1=C(c2ccccc2)N2CCN=C2S1: -0.93
- O=c1c2ccccc2nc(SCc2cccc(F)c2)n1Cc1ccco1: -5.33
- CCOC(=O)c1c(C)[nH]c(C=Nc2ccccc2)c1O: -4.13
- CCCCCCC1/C(=N/O)CCC1C(=O)OC (stereo unspecified): -8.44
- COCCn1c(=NC(=O)CSC(C)=O)sc2cc(F)ccc21: -3.16
- CCOC(=O)N1CCN(C(=O)Cn2ncn3nc(-c4cccs4)cc3c2=O)CC1: 1.71
- CCc1ccccc1OCCCCCNCCO: -2.05
- COC(=O)c1ccc(CSc2nc(-c3ccc(OC)cc3)nc3c2c(=O)n(C)c(=O)n3C)o1: -4.8

Continue with the compound presented below.
(Q) Requested read-out: inhibition. Entry: COc1ccc(NC(=O)CS(=O)CC(=O)Nc2cc(Cl)ccc2OC)cc1 (stereo unspecified)
(A) -4.36

###

- measurementTarget: Receptor tyrosine-protein kinase erbB-2 (Homo sapiens) (UniProt P04626)
- Sequence (P04626 whole entry, looked up): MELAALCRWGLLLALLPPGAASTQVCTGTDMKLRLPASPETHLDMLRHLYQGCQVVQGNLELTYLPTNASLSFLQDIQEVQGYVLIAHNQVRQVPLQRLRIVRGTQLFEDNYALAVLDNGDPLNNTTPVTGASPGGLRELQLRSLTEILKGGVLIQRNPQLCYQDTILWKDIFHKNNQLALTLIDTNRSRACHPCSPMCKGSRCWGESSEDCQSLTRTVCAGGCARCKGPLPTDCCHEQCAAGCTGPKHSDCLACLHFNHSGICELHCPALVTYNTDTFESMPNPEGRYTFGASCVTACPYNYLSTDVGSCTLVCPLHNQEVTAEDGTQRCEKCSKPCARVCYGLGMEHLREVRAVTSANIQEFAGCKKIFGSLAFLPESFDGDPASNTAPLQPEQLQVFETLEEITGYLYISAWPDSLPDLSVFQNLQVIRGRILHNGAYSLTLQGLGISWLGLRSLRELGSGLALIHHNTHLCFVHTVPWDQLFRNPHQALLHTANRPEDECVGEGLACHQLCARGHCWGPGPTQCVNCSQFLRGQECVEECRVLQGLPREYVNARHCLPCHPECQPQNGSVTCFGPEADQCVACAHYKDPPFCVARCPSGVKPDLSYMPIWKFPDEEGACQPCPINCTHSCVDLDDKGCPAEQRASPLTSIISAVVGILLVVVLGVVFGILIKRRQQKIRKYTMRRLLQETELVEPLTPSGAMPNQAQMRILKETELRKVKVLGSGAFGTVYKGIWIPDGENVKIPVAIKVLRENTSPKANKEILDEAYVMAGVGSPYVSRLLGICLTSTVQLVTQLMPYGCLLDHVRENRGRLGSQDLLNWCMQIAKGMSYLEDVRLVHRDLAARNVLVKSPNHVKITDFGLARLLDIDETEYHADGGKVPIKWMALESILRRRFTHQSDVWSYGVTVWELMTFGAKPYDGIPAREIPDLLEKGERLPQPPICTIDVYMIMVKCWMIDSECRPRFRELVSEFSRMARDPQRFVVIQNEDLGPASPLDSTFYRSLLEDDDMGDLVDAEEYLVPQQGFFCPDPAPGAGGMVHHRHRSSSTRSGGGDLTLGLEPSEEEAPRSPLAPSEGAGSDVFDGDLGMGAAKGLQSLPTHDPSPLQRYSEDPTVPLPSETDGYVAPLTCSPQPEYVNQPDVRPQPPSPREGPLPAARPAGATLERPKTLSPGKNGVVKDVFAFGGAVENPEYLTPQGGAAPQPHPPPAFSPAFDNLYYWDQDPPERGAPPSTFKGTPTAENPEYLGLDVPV
- methodNotes: reducers of endogenous Her2 protein level, primary screen, SKBR3 breast tumor cells, AlphaScreen, ATP viability (AID 461);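 note: lower value means less Her2 protein in the cells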
- experimentalConditions: 18-24 h, at 10 µM, active compounds read low
We begin with a simple list: items and their reported Her2 level.
// return numeric value only (unit: %, not printed)

The examples below pair each entry with its known result.
* COCCNC(=O)CSc1nc(-c2ccc(OC)c(OC)c2)cc(C(F)(F)F)n1 | 94
* COc1cccc(Oc2cn[nH]c2-c2ccc(O)cc2O)c1 | 122
* CCOc1cc(N2CCOCC2)c(OCC)cc1NC(=O)COC(=O)CCc1c[nH]c2ccccc12 | 98.5
* CCOC(=O)N1CCN(C(=O)CSCC(=O)Nc2nc(-c3ccc(OC)cc3)cs2)CC1 | 104
* CCOc1cccc(/C(O)=C2/C(=O)C(=O)N(CCN3CCOCC3)C2c2cccnc2)c1 (stereo not given) | 99.5
* Cn1c(=O)c2c(ncn2CC(=O)OCC(=O)NC2CCCc3ccccc32)n(C)c1=O (stereo not given) | 94

Continue with the compound presented below.
(Q) Test system Receptor tyrosine-protein kinase erbB-2 (Homo sapiens) (UniProt P04626); read-out Her2 level; what value for CCOC(=O)c1ccc(N2C(=O)CC(NC3CCN(C(=O)c4ccc(F)cc4)CC3)C2=O)cc1 (stereo not given) ?
(A) 126

###

- methodNotes: Restrictive medium S. cerevisiae growth inhibition, OD615, pilot screen of yeast lifespan reduction project, restrictive growth control (AID 706);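 note: modified DeaD lifespan yeast strain shifted to restrictive glucose medium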
- experimentalConditions: OD615, 48 h, at 10 µM, active compounds read high
Activity calls are given as the source filed them.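 How the source made its calls: active means growth inhibition above a set limit, 3 SD over mean compound inhibition, in both replicates (cut at about 43% in these data); inconclusive means above the limit in only one replicate; inactive means at or below the limit in both replicates.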
We begin with a simple list: items and their reported growth inhibition.

(Q) Requested read-out: growth inhibition. Entry: O=C(O)c1ccc(N2C(=O)CC(Cc3ccccc3)C2=O)cc1 (configuration not stated)
(A) 2.02% (inactive)

###

We begin with a simple list: items and their reported growth inhibition.
- methodNotes: OD615 S. cerevisiae growth inhibition, permissive medium, pilot counter-assay, permissive growth control for S. cerevisiae lifespan shortening project (AID 705)
- experimentalConditions: OD615, 24 h, at 10 µM, active compounds read high
// return numeric value only (unit: %, not printed)

The examples below pair each entry with its known result.
- COc1ccc(C2CC(=O)c3cnc(NC(=O)c4ccccc4)nc3C2)cc1OC (stereo not drawn): -3.28
- CSc1nc2c(cnn2-c2ccc(C)c(C)c2)c(=O)[nH]1: 3.89
- COc1ccc(C)cc1NC(=O)c1cc2c(CO)cnc(C)c2oc1=N: -16.1
- COc1ccc(N2CCN(C(=O)Cn3c(=O)[nH]c4ccsc4c3=O)CC2)cc1: -15.3
- Cc1ccccc1NC(=O)c1ccc(S(=O)(=O)N(C)C)cc1: -9.3

Continue with the molecule presented below.
(Q) Requested read-out: growth inhibition. Entry: COC(=O)c1c(-c2cccc(OC)c2)csc1N
(A) -8.46

###

- methodNotes: RAM signaling pathway blockade in yeast – S. cerevisiae, Pdr1DBD-CYC8 efflux-inhibited sensitized strain, primary screen (AID 1298);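 note: 0% = DMSO untreated cells without growth and 100% = 10 µM 1-NA-PP1 full growth; higher means more yeast growth rescued from 5-FOA killing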
- experimentalConditions: S. cerevisiae cbk1-as DSE1-URA3 strain, 5-FOA growth OD615, 2 d; at 50 µM; active compounds read high
The source made the active and inactive calls.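 The calls were made as follows: active = RAM network inhibition above 8.4% in each of two replicates, 3 SD over the compound average; inconclusive = above 8.4% inhibition in only one replicate; inactive = 8.4% inhibition or less in each replicate.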
endpoint: RAM network inhibition

* CC(=O)c1cccc(NC(=O)CN(c2ccc(F)cc2)S(C)(=O)=O)c1 | 5.96% (inactive)
* COc1ccccc1C1(CC(=O)O)CCOC(C)(C)C1 (centres undefined) | -1.44% (inactive)
* N#C/C(=C1\CCCN1)c1ccc2ccccc2n1 | 3.18% (inactive)
* CCOC(=O)c1[nH]c(C)c(C(=O)NCCN2CCOCC2)c1C | -0.87% (inactive)
* Cc1cc(C(=O)NCC(c2ccco2)N(C)C)no1 (centres undefined) | 8.39% (inactive)
* CC(Oc1ccccc1F)C(=O)NCCN1CCCCC1 (centres undefined) | 3.01% (inactive)

(Q) Requested read-out: RAM network inhibition. Entry: Cc1sc2ncnc(Sc3nnc4sc5ccccc5n34)c2c1C
(A) 5.95% (inactive)

(Q) What about this compound? Oc1ccc(Br)cc1-c1nc2cnccn2c1NC1CCCC1
(A) -1.71% (inactive)

(Q) What about this compound? COc1cccc(-c2nnc(NC(=O)C3CCCCC3)o2)c1
(A) 1.88% (inactive)

(Q) What about this compound? CCOc1ccc(-n2c(SCC(=O)Nc3ccc4c(c3)OCCO4)nc3c(c2=O)SCC3)cc1
(A) 9.35% (inactive)

(Q) What about this compound? Cc1ccccc1CN1C(=O)C(O)(CC(=O)c2ccncc2)c2ccccc21 (centres undefined)
(A) 5.38% (inactive)

(Q) What about this compound? CCCCNC(=O)c1ccc(NC(=O)C2CCCO2)cc1 (centres undefined)
(A) 3.01% (inactive)

###

- methodNotes: viability gain of MRP-1-high H69AR cells under doxorubicin, pilot screen, MRP-1 activator project, CellTiter-Glo, duplicate (AID 807);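 note: compound pretreatment 18-22 h then 72 h combined with doxorubicin; 0% = doxorubicin alone and 100% = vehicle without doxorubicin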
- experimentalConditions: H69AR viability with doxorubicin, CellTiter-Glo luminescence; at 10 µM; active compounds read high
Active and inactive are the calls of the source.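 The calls were made as follows: active = viability increase at or above a cutoff of the median across tested compounds plus 3 SD (cut at about 8.5% in these data, passing the limit was not always enough); inconclusive = some gains above the cutoff, reason not given; inactive = the rest.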
endpoint: viability increase

The examples below pair each entry with its known result.
* COC(=O)CC1SC(=O)NC1=Nc1ccccc1 (stereo unspecified) | 0.96% (inactive)
* CCCOc1ccc(C2c3c(oc4cc(C)c(C)cc4c3=O)C(=O)N2CCCN(C)C)cc1 (stereo unspecified) | 0.77% (inactive)
* COc1ccc(-c2nc(N3CCOCC3)nc3n[nH]c(N)c23)cc1 | -6.84% (inactive)
* COc1cc(C(=O)Nc2cc(C)c(OCC(=O)N3CCOCC3)c(C)c2)cc(OC)c1OC | -2.98% (inactive)
* Cc1cc(NC(=O)CN2CCN(c3ncccn3)CC2)no1 | -1.38% (inactive)

Continue with the compound presented below.
(Q) Requested read-out: viability increase. Entry: S=c1[nH]nc(-c2ccncc2)n1Cc1ccccc1
(A) -1.9% (inactive)

###

- methodNotes: 384-well plate pilot, post-Golgi transport modulator project, inhibition of yeast transport mutant growth (AID 636)
- experimentalConditions: absorbance 615 nm, about 18 h, active compounds read high
We begin with a simple list: items and their reported inhibition.
// return numeric value only (unit: %, not printed)

The examples below pair each entry with its known result.
• CCOC(=O)C1=C(C)NC(C)=C(C(=O)OCC)C1C(=O)OC1CCOC1=O (centres undefined) = -5.27
• CC(=O)Nc1c(C(=O)C2CC2)oc2ccccc12 = -5.33
• COc1ccc(OC)c(NC(=O)CSc2ncccc2C(=O)O)c1 = -3.29
• CCc1ccccc1NC(=O)CSc1ncn[nH]1 = -1.82
• Cc1ccc(-c2cc(C(=O)NCc3ccc4c(c3)OCO4)no2)cc1 = -7.43
• CCOc1ccc(-c2nnn(CCC(=O)O)n2)cc1OC = -4.93
• CC(=O)c1cc(Cl)ccc1OC(=O)c1ccco1 = -0.65
• COCC(=O)N(c1ccc(C(C)C)cc1)C1C=CS(=O)(=O)C1 (centres undefined) = -3.08
• CCN(CC)c1nc2nonc2nc1N(CC)CC = -6.53
• CCOC(=O)c1cc(CC)sc1NC(=O)CCC(=O)O = -6.13

(Q) Requested read-out: inhibition. Entry: COc1ccc(OC)c(C(=O)c2coc3ccc(O)c(CN4CCOCC4)c23)c1
(A) -5.07

(Q) What about this compound? CCN(CC)CCCN1C(=O)C(=O)/C(=C(/O)c2ccccc2)C1c1ccccn1 (centres undefined)
(A) -1.35

(Q) What about this compound? O=c1[nH]c(NCc2ccco2)nnc1Cc1ccccc1Cl
(A) -7.67

(Q) What about this compound? COCCNC(=O)c1cc2c(-c3ccccc3F)nn(C)c2s1
(A) -6.53

(Q) What about this compound? CC(C)C(NC(=O)OCc1ccccc1)C(=O)OCC(=O)NCc1ccco1 (centres undefined)
(A) -1.18

(Q) What about this compound? COc1ccc2nc3oc(C(=O)N4CCCCC4)cc3cc2c1
(A) -5.26

(Q) What about this compound? CCc1ccc(CNCc2cccnc2)cc1
(A) -1.82

(Q) What about this compound? Cc1ccc(S(=O)(=O)N2CCN(CCO)CC2)cc1-c1nnc2c3ccccc3c(C)nn12
(A) -5.07

(Q) What about this compound? Cc1c(C(=O)O)sc2ncn(C)c(=O)c12
(A) -7.76
